meta.source: patent US20070032502A1

pEC50 for assorted molecules
- Tested on: MB468
- METHOD_SUMMARY: Proliferation assay (Calcein AM viability, 72 hours)
- Assay type: cell-based
- TEST_SETTINGS: MB468; read-out: PROLIFERATION ASSAY EC50 MB468
pEC50: −log10 of the molar value.

Endpoint output: pEC50 of `Clc1ccc(C(c2ccc(Cl)cc2)N2CCN(Cc3nc(N4CCC(Cc5ccccc5)CC4)c4ccccc4n3)CC2)cc1` . Value? 5.22 to 5.40

Endpoint output: pEC50 of `O=c1[nH]c2ccccc2n1C1CCN(c2nc(CN3CCN(C(c4ccc(Cl)cc4)c4ccc(Cl)cc4)CC3)nc3ccccc23)CC1` . Value? 5.22 to 5.40

Endpoint output: pEC50 of `Clc1ccc(C(c2ccc(Cl)cc2)N2CCN(Cc3nc(N4CCN(c5ccccc5)CC4)c4ccccc4n3)CC2)cc1` . Value? 5.22 to 5.40

====

pEC50 for assorted compounds
- Test system: MB468
- METHOD_SUMMARY: Proliferation assay (Calcein AM viability, 72 hours)
- Assay type: cell-based
- TEST_SETTINGS: MB468; read-out: PROLIFERATION ASSAY EC50 MB468
pEC50: −log10 of the molar value.

{"columns": ["COMPOUND", "TARGET", "PARAMETER", "REPORTED_MEASUREMENT"],
 "data": [
  ["CN(CCc1ccccn1)c1nc(CN2CCN(C(c3ccc(Cl)cc3)c3ccc(Cl)cc3)CC2)nc2ccccc12", "MB468", "pEC50", "5.22 to 5.40"],
  ["NC(=O)C1CCN(c2nc(CN3CCN(C(c4ccc(Cl)cc4)c4ccc(Cl)cc4)CC3)nc3ccccc23)CC1", "MB468", "pEC50", "< 5.22"],
  ["COC(=O)C1CCN(c2nc(CN3CCN(C(c4ccc(Cl)cc4)c4ccc(Cl)cc4)CC3)nc3ccccc23)CC1", "MB468", "pEC50", "5.22 to 5.40"],
  ["CCN(CC)C(=O)C1CCCN(c2nc(CN3CCN(C(c4ccc(Cl)cc4)c4ccc(Cl)cc4)CC3)nc3ccccc23)C1 (stereo not drawn)", "MB468", "pEC50", "< 5.22"],
  ["Clc1ccc(C(c2ccc(Cl)cc2)N2CCN(Cc3nc(N4CCN(Cc5ccccc5)CC4)c4ccccc4n3)CC2)cc1", "MB468", "pEC50", "5.40 to 5.70"],
  ["Clc1ccc(C(c2ccc(Cl)cc2)N2CCN(Cc3nc(N4CCN(c5ncccn5)CC4)c4ccccc4n3)CC2)cc1", "MB468", "pEC50", "< 5.22"],
  ["Clc1ccc(C(c2ccc(Cl)cc2)N2CCN(Cc3nc(N4CCCCCC4)c4ccccc4n3)CC2)cc1", "MB468", "pEC50", "5.40 to 5.70"],
  ["CN(CCC1C=Nc2ccccc21)c1nc(CN2CCN(C(c3ccc(Cl)cc3)c3ccc(Cl)cc3)CC2)nc2ccccc12 (stereo not drawn)", "MB468", "pEC50", "5.40 to 5.70"],
  ["O=C(C1CCCO1)N1CCN(c2nc(CN3CCN(C(c4ccc(Cl)cc4)c4ccc(Cl)cc4)CC3)nc3ccccc23)CC1 (stereo not drawn)", "MB468", "pEC50", "< 5.22"],
  ["OC1CCN(c2nc(CN3CCN(C(c4ccc(Cl)cc4)c4ccc(Cl)cc4)CC3)nc3ccccc23)CC1", "MB468", "pEC50", "5.22 to 5.40"]
]}

Endpoint output: pEC50 of OC1CCN(c2nc(CN3CCN(C(c4ccc(Cl)cc4)c4ccc(Cl)cc4)CC3)nc3ccccc23)C1 (stereo not drawn) . Value? < 5.22

Endpoint output: pEC50 of `CN(C)[C@@H]1CCN(c2nc(CN3CCN(C(c4ccc(Cl)cc4)c4ccc(Cl)cc4)CC3)nc3ccccc23)C1` . Value? < 5.22

Endpoint output: pEC50 of `CN(Cc1ccccc1)c1nc(CN2CCN(C(c3ccc(Cl)cc3)c3ccc(Cl)cc3)CC2)nc2ccccc12` . Value? < 5.22

Endpoint output: pEC50 of `Clc1ccc(C(c2ccc(Cl)cc2)N2CCN(Cc3nc(N4CCc5ccccc5C4)c4ccccc4n3)CC2)cc1` . Value? < 5.22

Endpoint output: pEC50 of `Clc1ccc(C(c2ccc(Cl)cc2)N2CCN(Cc3nc(N4CCOCC4)c4ccccc4n3)CC2)cc1` . Value? < 5.22

====

- Tested on: Human tumor DLD1 cells containing mutant p53
- METHOD_SUMMARY: Soft agar assay (colony outgrowth)
- Assay type: cell-based
- TEST_SETTINGS: DLD-1, 10-16 days
PARAMETER: IC50 (nM)
Note: unit nM is implicit; provide only the numeric part.

Endpoint output: IC50 of CN(C)CCCNc1nc(CN2CCN(C(c3ccc(Cl)cc3)c3ccc(Cl)cc3)CC2)nc2ccccc12 [Example 1] . Value? 390

====

- Test system: pancreatic cells
- METHOD_SUMMARY: Potentiation of growth suppression with temozolomide (proliferation assay, temozolomide IC50)
- Assay type: cell-based
- TEST_SETTINGS: Homo sapiens, MIA PaCa-2; Miapaca-2, Pancreas, p53 mutant; TMZ alone
PARAMETER: IC50 (mM)
Note: unit mM is implicit; provide only the numeric part.

Endpoint output: IC50 of Cn1nnc2c(C(N)=O)ncn2c1=O [TMZ, temozolomide] . Value? 3.32

====

- System: MB468
- METHOD_SUMMARY: Proliferation assay (Calcein AM viability, 72 hours)
- Type: cell-based
- TEST_SETTINGS: MB468 cells; read-out: PROFILE-RATION ASSAY EC50 MB468
pEC50: −log10 of the molar value.
pEC50 for assorted compounds

Worked examples follow.
{"columns": ["COMPOUND", "TARGET", "pEC50"],
 "data": [
  ["CN(C)CCCNc1nc(CN2CCN(Cc3cccc4cc[nH]c34)CC2)nc2ccccc12", "MB468", "5.22 to 5.40"],
  ["CCC(C)(C)C1CCC(N2CCN(Cc3nc(NCCCN(C)C)c4ccccc4n3)CC2)CC1 (stereo not shown)", "MB468", "5.40 to 5.70"],
  ["CN(C)CCCNc1nc(CN2CCN(Cc3cccc4ccccc34)CC2)nc2ccccc12", "MB468", "5.22 to 5.40"]
]}

Endpoint output: pEC50 of CCC(C)(C)C1CCC(N2CCN(Cc3nc(NCCCN(C)C)c4ccccc4n3)CC2)C1 (stereo not shown) . Value? 5.22 to 5.40

====

EC50 for assorted compounds
- Test system: MB468
- METHOD_SUMMARY: Proliferation assay (Calcein AM viability, 72 hours)
- Format: cell-based
- TEST_SETTINGS: 72 h, MB468 cells, 72 hours; read-out: PROLIFERATION ASSAY EC50 MB468
Note: unit nM is implicit; provide only the numeric part.

{"columns": ["COMPOUND", "UNIT_LABEL", "EC50"],
 "data": [
  ["CCC(C)(C)C1CCC(N2CCN(Cc3nc(NCCCN(C)C)c4ccccc4n3)CC2)CC1 (centres unmarked) [Example 25-90]", "nM", 2000],
  ["CN(C)CCCNc1nc(CN2CCN(Cc3cccc4ccccc34)CC2)nc2ccccc12 [Example 25-36]", "nM", 2000],
  ["CN(C)CCCNc1nc(CN2CCN(C(c3ccc(Cl)cc3)c3ccc(Cl)cc3)CC2)nc2ccccc12 [Example 1]", "nM", 1100],
  ["COc1ccc(/C=C/c2nc(NCCCN(C)C)c3ccccc3n2)cc1 [CP-31398, reference compound]", "nM", 4100]
]}

Would you kindly look at the next entry?
Endpoint output: EC50 of CN(C)CCCNc1nc(CN2CCN(C(c3ccccc3)c3ccc(OC(F)(F)F)cc3)CC2)nc2ccccc12 (centres unmarked) [Example 11-2] . Value? 1600

====

- TARGET: GST-p53 DNA binding domain (aa 92-aa 312) (Homo sapiens)
- Sequence (P04637 92-312): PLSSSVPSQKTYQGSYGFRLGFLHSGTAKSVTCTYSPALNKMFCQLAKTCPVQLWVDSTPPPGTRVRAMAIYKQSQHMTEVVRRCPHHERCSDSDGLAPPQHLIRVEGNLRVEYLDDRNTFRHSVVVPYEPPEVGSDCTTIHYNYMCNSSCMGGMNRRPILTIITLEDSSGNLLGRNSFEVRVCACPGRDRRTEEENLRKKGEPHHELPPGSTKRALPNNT
- METHOD_SUMMARY: Scintillation Proximity Assay (SPA), displacement of 3H STANDARD COMPOUND
- TEST_SETTINGS: 1 h; read-out: SPA ASSAY (% residual T @ 2 ug/mL of drug)
remaining activity at 2 µg/mL for assorted compounds

{"columns": ["COMPOUND", "TARGET", "remaining activity at 2 µg/mL"],
 "data": [
  ["NC(=O)C1CCN(c2nc(CN3CCN(C(c4ccc(Cl)cc4)c4ccc(Cl)cc4)CC3)nc3ccccc23)CC1", "GST-p53 DNA binding domain (aa 92-aa 312) (Homo sapiens)", "> 80%"]
]}

Endpoint output: remaining activity at 2 µg/mL of `O=c1[nH]c2ccccc2n1C1CCN(c2nc(CN3CCN(C(c4ccc(Cl)cc4)c4ccc(Cl)cc4)CC3)nc3ccccc23)CC1` . Value? 40 to 80%

Endpoint output: remaining activity at 2 µg/mL of `COC(=O)C1CCN(c2nc(CN3CCN(C(c4ccc(Cl)cc4)c4ccc(Cl)cc4)CC3)nc3ccccc23)CC1` . Value? > 80%

Endpoint output: remaining activity at 2 µg/mL of `CN(C)[C@@H]1CCN(c2nc(CN3CCN(C(c4ccc(Cl)cc4)c4ccc(Cl)cc4)CC3)nc3ccccc23)C1` . Value? 40 to 80%

Endpoint output: remaining activity at 2 µg/mL of O=C(C1CCCO1)N1CCN(c2nc(CN3CCN(C(c4ccc(Cl)cc4)c4ccc(Cl)cc4)CC3)nc3ccccc23)CC1 (stereo not shown) . Value? > 80%

Endpoint output: remaining activity at 2 µg/mL of `OC1CCN(c2nc(CN3CCN(C(c4ccc(Cl)cc4)c4ccc(Cl)cc4)CC3)nc3ccccc23)CC1` . Value? > 80%

Endpoint output: remaining activity at 2 µg/mL of CCN(CC)C(=O)C1CCCN(c2nc(CN3CCN(C(c4ccc(Cl)cc4)c4ccc(Cl)cc4)CC3)nc3ccccc23)C1 (stereo not shown) . Value? > 80%

Endpoint output: remaining activity at 2 µg/mL of OC1CCN(c2nc(CN3CCN(C(c4ccc(Cl)cc4)c4ccc(Cl)cc4)CC3)nc3ccccc23)C1 (stereo not shown) . Value? > 80%

Endpoint output: remaining activity at 2 µg/mL of `CN(CCc1ccccn1)c1nc(CN2CCN(C(c3ccc(Cl)cc3)c3ccc(Cl)cc3)CC2)nc2ccccc12` . Value? > 80%

Endpoint output: remaining activity at 2 µg/mL of `Clc1ccc(C(c2ccc(Cl)cc2)N2CCN(Cc3nc(N4CCOCC4)c4ccccc4n3)CC2)cc1` . Value? > 80%
